The measurements presented in this section are drawn from patent US10287255B2.

- measured.target: human recombinant HDAC6 (Homo sapiens)
- Construct: purchased Calbiochem 382180
- Sequence (Q9UBN7 1-1215): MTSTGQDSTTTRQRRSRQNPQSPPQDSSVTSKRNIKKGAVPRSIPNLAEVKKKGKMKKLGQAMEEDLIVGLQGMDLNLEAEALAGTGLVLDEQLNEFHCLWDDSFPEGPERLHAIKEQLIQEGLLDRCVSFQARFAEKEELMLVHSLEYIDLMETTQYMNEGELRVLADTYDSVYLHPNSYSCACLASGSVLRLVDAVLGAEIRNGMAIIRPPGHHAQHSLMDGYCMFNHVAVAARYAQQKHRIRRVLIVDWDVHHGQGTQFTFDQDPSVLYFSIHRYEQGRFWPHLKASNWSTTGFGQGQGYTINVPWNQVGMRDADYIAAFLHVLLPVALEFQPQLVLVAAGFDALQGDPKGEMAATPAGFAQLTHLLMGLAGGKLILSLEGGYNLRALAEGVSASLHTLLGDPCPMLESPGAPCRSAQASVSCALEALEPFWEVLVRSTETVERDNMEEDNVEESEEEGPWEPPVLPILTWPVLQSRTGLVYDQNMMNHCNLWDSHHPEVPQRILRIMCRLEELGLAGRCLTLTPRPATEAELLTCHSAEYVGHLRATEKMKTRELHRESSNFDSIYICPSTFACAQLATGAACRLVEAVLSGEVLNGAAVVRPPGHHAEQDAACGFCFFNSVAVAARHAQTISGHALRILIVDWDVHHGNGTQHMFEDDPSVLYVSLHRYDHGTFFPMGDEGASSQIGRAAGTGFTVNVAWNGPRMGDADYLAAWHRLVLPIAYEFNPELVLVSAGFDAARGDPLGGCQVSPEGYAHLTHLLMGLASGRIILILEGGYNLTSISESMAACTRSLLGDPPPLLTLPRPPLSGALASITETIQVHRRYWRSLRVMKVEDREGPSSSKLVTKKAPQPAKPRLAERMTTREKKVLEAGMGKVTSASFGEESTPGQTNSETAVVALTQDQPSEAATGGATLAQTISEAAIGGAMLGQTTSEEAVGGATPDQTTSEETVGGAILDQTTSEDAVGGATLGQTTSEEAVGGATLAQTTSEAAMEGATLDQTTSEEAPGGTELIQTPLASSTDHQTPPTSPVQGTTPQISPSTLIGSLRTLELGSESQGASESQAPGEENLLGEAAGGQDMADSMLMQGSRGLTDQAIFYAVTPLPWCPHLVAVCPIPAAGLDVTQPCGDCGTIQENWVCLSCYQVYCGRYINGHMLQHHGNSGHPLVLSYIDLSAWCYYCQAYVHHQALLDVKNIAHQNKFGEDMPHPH
- assay.name: HDAC6 enzyme activity inhibition assay (in vitro, fluorimetric)
- Type: biochemical
- test.settings: human recombinant HDAC6, fluorimetric kit, same protocol as HDAC1
pIC50: −log10 of the molar value.
measured.parameter: pIC50

C[C@@H]1CN(Cc2ccc(C(=O)NO)cc2)C[C@H](C)N1Cc1ccc(-c2ccoc2)cc1 [Compound 309] = 7.14
CC(C)N1CC=C(c2ccccc2CN2[C@H](C)CN(Cc3ccc(C(=O)NO)cc3)C[C@@H]2C)CC1 [Compound 484] = 6.89

[A] C[C@@H]1CN(Cc2ccc(C(=O)NO)cc2)C[C@H](C)N1C(=O)c1cccc(CN2CCN(C)CC2)c1 [Compound 432]
[B] C[C@@H]1CN(Cc2ccc(C(=O)NO)cc2)C[C@H](C)N1C(=O)c1cccc(C2=CCOCC2)c1 [Compound 244]
[C] CC(C)N1C[C@@H](C)N(Cc2ccc(C(=O)NO)cc2)[C@@H](C)C1 [Compound 273]
[D] C[C@@H]1CN(Cc2ccc(C(=O)NO)cc2)C[C@H](C)N1C(=O)c1ccccc1-c1ccco1 [Compound 283]
Query :: Rank the 4 compounds: largest pIC50 first, smallest last. // list labels; follow requested order
Result :: D, A, B, C
(D: 7.64, A: 7.38, B: 7.01, C: 6.36)

----------
- measured.target: human recombinant HDAC1 (Homo sapiens, UniProt Q13547)
- Sequence (Q13547 whole entry): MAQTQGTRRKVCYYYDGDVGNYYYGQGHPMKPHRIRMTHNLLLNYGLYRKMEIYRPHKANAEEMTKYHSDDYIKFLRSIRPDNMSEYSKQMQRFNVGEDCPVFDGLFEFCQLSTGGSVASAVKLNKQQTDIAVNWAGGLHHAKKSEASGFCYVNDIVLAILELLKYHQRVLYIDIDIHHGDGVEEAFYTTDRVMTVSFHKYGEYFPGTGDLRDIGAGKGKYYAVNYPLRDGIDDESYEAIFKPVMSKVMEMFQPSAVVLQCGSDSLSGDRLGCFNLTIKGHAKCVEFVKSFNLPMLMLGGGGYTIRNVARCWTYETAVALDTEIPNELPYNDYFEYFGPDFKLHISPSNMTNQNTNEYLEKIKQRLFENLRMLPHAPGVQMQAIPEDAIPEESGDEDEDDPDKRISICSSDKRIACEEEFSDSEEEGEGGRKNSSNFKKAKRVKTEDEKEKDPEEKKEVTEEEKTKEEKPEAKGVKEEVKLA
- assay.name: HDAC1 enzyme activity inhibition assay (in vitro, fluorimetric)
- test.settings: human recombinant HDAC1, fluorimetric kit, 30° C. 60 minutes
pIC50: −log10 of the molar value.
measured.parameter: pIC50

Consider the worked cases shown below.
C[C@@H]1CN(Cc2ccc(C(=O)NO)cc2)C[C@H](C)N1C(=O)c1cccc(C2=CCOCC2)c1 [Compound 244] = 5.47
C[C@@H]1CN(Cc2ccc(S(C)(=O)=O)cc2)C[C@H](C)N1Cc1ccc(C(=O)NO)cc1 [Compound 300] = 5.43
C[C@@H]1CN(Cc2ccc(C(=O)NO)cc2)C[C@H](C)N1C(=O)C1CC1 [Compound 295] = 5.24

[1] C[C@@H]1CN(Cc2ccc(C(=O)NO)cc2)C[C@H](C)N1C(=O)c1cccc(CN2CCCCC2)c1 [Compound 424]
[2] C[C@@H]1CN(Cc2ccc(C(=O)NO)cc2)C[C@H](C)N1C(=O)c1cccc(C2=CCC(C)(C)CC2)c1 [Compound 247]
Query :: Parameter check: reported pIC50 is higher for which label, 1 or 2 ? // caller expects the label of the chosen entry
Result :: 1

[P] C[C@@H]1CN(C(=O)c2ccc(CC(=O)NO)cc2)C[C@H](C)N1Cc1ccccc1 [Compound 823]
[Q] C[C@@H]1CN(Cc2ccc(C(=O)NO)cc2)C[C@H](C)N1Cc1ccc(OCC2CCN(CC(C)(C)F)CC2)cc1 [Compound 388]
Query :: Could you kindly indicate whether P or Q has the higher pIC50 value? Respond with the label that goes with your answer.
Result :: P

[a] C[C@@H]1CN(Cc2ccc(C(=O)NO)cc2)C[C@H](C)N1Cc1cccc(Cl)c1C(F)(F)F [Compound 267]
[b] C[C@@H]1CN(Cc2ccc(C(=O)NO)cc2)C[C@H](C)N1C(=O)NCc1cccc(F)c1 [Compound 232]
Query :: Exercise: compare a and b ; which one has the greater pIC50? Identify your selection by its label.
Result :: b

[A] C[C@@H]1CN(Cc2ccc(C(=O)NO)cc2)C[C@H](C)N1C(=O)c1ccc(Cl)cc1 [Compound 122]
[B] C[C@@H]1CN(Cc2ccc(C(=O)NO)cn2)C[C@H](C)N1Cc1ccccc1 [Compound 194]
Query :: # argmax over pIC50 for candidates A and B Provide the label of your selected option as the answer.
Result :: A

[P] CC(=O)N1CCN(Cc2cccc(CN3[C@H](C)CN(Cc4ccc(C(=O)NO)cc4)C[C@@H]3C)c2)CC1 [Compound 431]
[Q] Cc1cccc(NC(=S)N2C[C@@H](C)N(Cc3ccc(C(=O)NO)cc3)[C@@H](C)C2)c1 [Compound 189]
Query :: Of P and Q , which shows the smaller pIC50 value? Response format: the label of the selected entry.
Result :: P

----------
- measured.target: human recombinant HDAC1 (Homo sapiens, UniProt Q13547)
- assay.name: HDAC1 enzyme activity inhibition assay (in vitro, fluorimetric)
- test.settings: human recombinant HDAC1, fluorimetric kit, 30° C. 60 minutes
measured.parameter: IC50 (µM)

C[C@@H]1CN(Cc2ccc(C(=O)NO)cc2)C[C@H](C)N1Cc1cccc(Cl)c1 [Compound 128] = 11.1

[1] CC(c1ccccc1)N1C[C@@H](C)N(Cc2ccc(C(=O)NO)cc2)[C@@H](C)C1 (some centres unmarked) [Compound 220]
[2] C[C@@H]1CN(Cc2ccc(C(=O)NO)cc2)C[C@H](C)N1Cc1cccc(-c2ccncc2)c1 [Compound 345]
Query :: Dear colleague, could you let me know whether 1 or 2 has the lower recorded IC50? Thanks. Reply with the label of the item you choose.
Result :: 2

[I] C[C@@H]1CN(Cc2ccc(C(=O)NO)cc2)C[C@H](C)N1C(=O)c1cccc(-c2ccoc2)c1 [Compound 243]
[II] C[C@@H]1CN(Cc2cccc(-c3ccoc3)c2)C[C@H](C)N1Cc1ccc(C(=O)NO)cc1 [Compound 396]
[III] CC(C)C(=O)N1[C@H](C)CN(Cc2ccc(C(=O)NO)cc2)C[C@@H]1C [Compound 296]
Query :: // smallest IC50 at index 0, largest at the end To answer, write out the labels according to the requested order.
Result :: II, I, III

[1] C[C@@H]1CN(C(=O)NCc2ccccc2)C[C@H](C)N1Cc1ccc(C(=O)NO)cc1 [Compound 168]
[2] CCN(CC)Cc1cccc(C(=O)N2[C@H](C)CN(Cc3ccc(C(=O)NO)cc3)C[C@@H]2C)c1 [Compound 425]
Query :: Lower value of IC50 belongs to which: 1 or 2 ? Please respond with the label that marks your chosen entry.
Result :: 2

----------
- measured.target: human recombinant HDAC6 (Homo sapiens, UniProt Q9UBN7)
- Construct: purchased Calbiochem 382180
- assay.name: HDAC6 enzyme activity inhibition assay (in vitro, fluorimetric)
- Assay type: biochemical
- test.settings: HDAC6 selectivity over HDAC1
- Procedure: In order to examine the HDAC6 selectivity of the compounds of formula 1 of the present invention by HDAC1 and HDAC6 enzymatic activity inhibition assays, an experiment was performed using a conventional substance as a control. HDAC enzyme activity was measured using a HDAC Fluorimetric Drug Discovery Kit (BML-AK511, 516, Enzo Life Science). […] Based on the resulting values, each IC50 value was calculated using GraphPad Prism4.0 program.
measured.parameter: HDAC6 selectivity (fold)

Consider the following illustrative entries.
C[C@@H]1CN(C(=O)N2CCc3ccccc32)C[C@H](C)N1Cc1ccc(C(=O)NO)cc1 [Compound 197] = 12
C[C@@H]1CN(CC(C)(C)F)C[C@H](C)N1Cc1ccc(C(=O)NO)cc1 [Compound 193] = 60
C[C@@H]1CN(Cc2ccc(C(=O)NO)cc2)C[C@H](C)N1C(=O)c1ccccc1 [Compound 083] = 201
C[C@@H]1CN(Cc2ccc(C(=O)NO)cc2)C[C@H](C)N1C(=O)Oc1ccccc1 [Compound 177] = 186
C[C@@H]1CN(Cc2ccc(C(=O)NO)cc2)C[C@H](C)N1Cc1ccc(-c2ccoc2)cc1 [Compound 309] = 21

[a] CCCCN(C(=O)N1C[C@@H](C)N(Cc2ccc(C(=O)NO)cc2)[C@@H](C)C1)c1ccccc1 [Compound 198]
[b] C[C@@H]1CN(c2ccc(F)cc2)C[C@H](C)N1Cc1ccc(C(=O)NO)cc1 [Compound 119]
[c] C[C@@H]1CN(Cc2ccc(C(=O)NO)cc2)C[C@H](C)N1C(=O)c1ccc(CN2CCCC2)cc1 [Compound 461]
[d] C[C@@H]1CN(C(=O)Nc2ccccc2)C[C@H](C)N1Cc1ccc(C(=O)NO)cc1 [Compound 162]
[e] C[C@@H]1CN(Cc2ccc3ccccc3c2)C[C@H](C)N1Cc1ccc(C(=O)NO)cc1 [Compound 268]
Query :: Arrange the 5 compounds from largest to smallest HDAC6 selectivity (fold). List the labels, following the order given in the request.
Result :: a, b, c, d, e
(a: 51 fold, b: 26 fold, c: 18 fold, d: 5 fold, e: 2 fold)

[I] C[C@@H]1CN(Cc2ccc(C(=O)NO)cc2)C[C@H](C)N1Cc1cncnc1 [Compound 355]
[II] C[C@@H]1CN(Cc2ccc(/C=C/C(=O)NO)cc2)C[C@H](C)N1C(=O)Nc1cccc(-n2cccc2)c1 [Compound 321]
Query :: Would you let me know which has the greater HDAC6 selectivity (fold) value, I or II ? Selection: enter the item's label.
Result :: I
(I: 20 fold, II: 8 fold)

[I] C[C@@H]1CN(Cc2ccc(C(=O)NO)cc2)C[C@H](C)N1C(=O)c1cccc(-c2ccco2)c1 [Compound 242]
[II] C[C@@H]1CN(S(=O)(=O)c2ccc(CC(=O)NO)cc2)C[C@H](C)N1Cc1ccccc1 [Compound 820]
Query :: Smaller HDAC6 selectivity (fold) value, I vs II ? # respond with the chosen item's label
Result :: II
